System: CN0375-F725-PDC KRAS spheroid viability;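 further: spheroids exposed to agents for 7 days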
protocol.notes: Anticancer human tumor CN0375-F725-PDC patient-derived colon carcinoma cell line growth inhibition [KRAS2]
experimental.conditions: second compound 0.316 µM; first compound 0.1 µM; hits give low values; spheroids with HUVEC and MSC
Excerpt: Multicellular complex tumor spheroid response to RAS pathway inhibitors in combination with a targeted agents in patient-derived cell lines with oncogenic KRAS variants from multiple cancer types A high-throughput screen of multi-cell type tumor spheroids was designed to identify active combinations of targeted small molecules and KRAS pathway inhibitors. […] Compounds. […] If the clinical Cmax for an agent had not been determined, the highest concentration tested was 10 microM. […]
Recorded viability, T/C values for a group of compounds are listed next.
measurement.label: viability, T/C

[[record]]
compound = "COc1cc2nccc(Oc3ccc(NC(=O)C4(C(=O)Nc5ccc(F)cc5)CC4)cc3)c2cc1OC + COc1cc2nc(C)nc(NC(C)c3cc(N)cc(C(F)(F)F)c3)c2cc1OC1CCOC1"
reading = "96.6%"

[[record]]
compound = "O=C(c1cc(Cc2n[nH]c(=O)c3ccccc23)ccc1F)N1CCN(C(=O)C2CC2)CC1 + C=CC(=O)N1CCN(c2nc(=O)n(-c3c(C)ccnc3C(C)C)c3nc(-c4c(O)cccc4F)c(F)cc23)C(C)C1"
reading = "102%"

[[record]]
compound = "CC(C)NCC(C(=O)N1CCN(c2ncnc3c2C(C)CC3O)CC1)c1ccc(Cl)cc1 (stereo not drawn) + CC1OCC2(CCN(c3cnc(Sc4ccnc(N)c4Cl)c(N)n3)CC2)C1N"
reading = "93.5%"


Hello, the source for this data is PubChem BioAssay AID1963860, in case you need it.
